test.name: Oral toxicity (LD50) in rats
assay.setup: rat, in vivo
outcome.measure: LD50

Which LD50 is listed for C[N+](C)(C)C[C@H](O)CC(=O)[O-].O=C(O)/C=C/C(=O)O [Ultra-fine L-carnitine fumarate, L-carnitine fumarate] ?
> 8000 mg/kg
